assay-comment: Human HepG2 cell viability assay in 384 well format
Assay type: toxicity, cell-based
Design: dose 125 nL, time 70.5 hour; concentration not given beside the values
cond: HepG2 cells, read-out: Inhibition
experimental-readout: cytotoxicity at 70.5 h (%)
Use % as the unit, but write only the number.

Completed entries (count: 10):
>>> value_observed("O=C(NCC(O)C1CC1)Nc1cnn(Cc2ccccc2)c1 (configuration not stated)")
-7.29
>>> value_observed("O=C1CCNc2cc3c(cc2CN1Cc1ccco1)OCO3")
-5.93
>>> value_observed("Cc1noc(C)c1CC(=O)NCC(C(C)C)N1CCOCC1 (configuration not stated)")
-10.6
>>> value_observed("CC(C)c1nccn1-c1cccc(C2CCCN(C3CCCC3)C2)n1 (configuration not stated)")
-12.4
>>> value_observed("Cc1cccc(CSc2nnc(C)n2CC(N)=O)c1")
-91.2
>>> value_observed("CS(=O)(=O)c1nnc(NC(=O)CCc2ccc(Cl)s2)[nH]1")
-10.2
>>> value_observed("Cc1c[nH]nc1C1CCN(c2cnccn2)C1 (configuration not stated)")
5.06
>>> value_observed("COCCN(Cc1ccc(C)cc1)CC1CCOC1 (configuration not stated)")
-5.9
>>> value_observed("CS(=O)(=O)N1CCN(c2ccc3ccc(C(=O)NC4CC4)cn23)CC1")
0.444
>>> value_observed("CCN(CCn1c(=O)oc2ccccc21)CC1CCOCC1")
-2.32

Query string: Item under review: `CCOCc1nn(CC2CC2)c2c1CN(Cc1ccco1)CC2` . Reported cytotoxicity at 70.5 h?
Result string: -6.88

Query string: // query: `O=C(c1ccc(Cl)cc1)N1CCC(N2CCOC2=O)CC1`
Result string: -7.62

* * *

assay-comment: Human HepG2 cell viability assay in 384 well format
Type: toxicity, cell-based
Design: dose 125 nL, time 70.5 hour; concentration not given beside the values
cond: HepG2 cells, read-out: Inhibition
# maps each entry to its cytotoxicity at 70.5 h
Use % as the unit, but write only the number.

Completed entries (count: 10):
>>> value_observed("CCCc1cc(N2CCCC2Cn2nc(C)nc2C)n2ncnc2n1 (centres undefined)")
-0.261
>>> value_observed("COc1ccc(C2CCCCCN2Cc2nnc(C)o2)cc1 (centres undefined)")
-3.01
>>> value_observed("C=C(C)COc1ccccc1CNCCc1cc(O)nc(C)n1")
-2.32
>>> value_observed("O=C(c1c[nH]c(=O)c(Cl)c1)N1C[C@@H]2CC[C@H](C1)N(CC1CCC1)C2")
19.9
>>> value_observed("COc1cccc(C2CC(=O)Nc3nc(N)sc32)c1OC (centres undefined)")
12.4
>>> value_observed("CCCN1C(=O)C2(CCCCC2)NC1c1cn(C)c(=O)n(C)c1=O (centres undefined)")
-6.69
>>> value_observed("CCc1ccsc1C(=O)N1CCN(CC(N)=O)CC1")
13.8
>>> value_observed("Cc1cccc(CN2C(=O)CO[C@@H]3CN(CCO)C[C@H]32)c1")
-3.53
>>> value_observed("CC(C)n1cc(CN2CCCN(C(=O)c3ccc[nH]3)CC2)cn1")
-5.05
>>> value_observed("CCN1CCCC(O)(CN(C)Cc2c(C)nn(C)c2C)C1 (centres undefined)")
2.33

Let's switch to this molecule now.
Query string: Item under review: `CC(=O)NCC(=O)N1C[C@@H](C)[C@@]2(CCN(c3ccsc3)C2=O)C1` . Reported cytotoxicity at 70.5 h?
Result string: -10.5

* * *

assay-comment: Human HepG2 cell viability assay in 384 well format
Type: toxicity, cell-based
Set-up: dose 125 nL, time 70.5 hour; concentration not given beside the values
cond: HepG2 cells, read-out: Inhibition
experimental-readout: cytotoxicity at 70.5 h (%)
Use % as the unit, but write only the number.

Completed entries (count: 5):
>>> value_observed("c1coc(CN2CCC3(CC2)CC(N2CCCC2)CO3)c1 (centres undefined)")
33.2
>>> value_observed("c1coc(CN2Cc3ccnn3CC(COCC3CC3)C2)c1 (centres undefined)")
-6.27
>>> value_observed("COCCOCC(=O)Nc1ccccc1F")
-6.23
>>> value_observed("CN1C[C@@H](c2cccc(F)c2)[C@H]2[C@H]1CCCCCN2C(=O)C1CC1")
2.38
>>> value_observed("CNS(=O)(=O)c1ccc(CNC(=O)c2cc(-c3ccccn3)no2)cc1")
-8.91

Query string: Item under review: `COC(=O)c1ccc(CCn2cnc(C#N)n2)cc1` . Reported cytotoxicity at 70.5 h?
Result string: 13.2

Query string: // query: `c1ccc(NC[C@@H]2CCC[C@@H]3CN(Cc4cc[nH]n4)C[C@@H]32)nc1`
Result string: -12.4

* * *

assay-comment: Human HepG2 cell viability assay in 384 well format
Assay type: toxicity, cell-based
Set-up: dose 125 nL, time 70.5 hour; concentration not given beside the values
cond: HepG2 cells, read-out: Inhibition
# maps each entry to its cytotoxicity at 70.5 h
Use % as the unit, but write only the number.

Completed entries (count: 8):
>>> value_observed("CC(C)c1noc(CC[C@@H]2CCCN3CCCC[C@H]23)n1")
-0.439
>>> value_observed("CCN1CCN(S(=O)(=O)c2cc(C)c(Cl)cc2Cl)CC1")
10.1
>>> value_observed("Cc1ccc(OC2(C(=O)NC(C)c3csc(C)n3)CCNCC2)cc1 (configuration not stated)")
22.5
>>> value_observed("O=C(CCCc1nc(C2CC2)no1)N1CCCC(c2ccn[nH]2)C1 (configuration not stated)")
-7.72
>>> value_observed("CC(=O)C1(c2ccccc2)CCN(C(=O)c2ccn3nnnc3c2)CC1")
-13.3
>>> value_observed("O=C(CCCn1cncn1)NC1(c2cccc(Br)c2)CC1")
4.56
>>> value_observed("COCCn1ccc(NC(=O)Nc2ccncc2)n1")
-3.96
>>> value_observed("CN(Cc1cnn(C)c1)C(=O)c1cc(C(F)(F)F)n(C)n1")
-15.3

Query string: Item under review: `c1ccc(Cc2nnc([C@H]3CCN(C4CCCCC4)C3)o2)cc1` . Reported cytotoxicity at 70.5 h?
Result string: 1.09

* * *

# maps each entry to its cytotoxicity at 70.5 h
assay-comment: Human HepG2 cell viability assay in 384 well format
Assay type: toxicity, cell-based
Design: dose 125 nL, time 70.5 hour; concentration not given beside the values
cond: HepG2 cells, read-out: Inhibition
Use % as the unit, but write only the number.

>>> value_observed("CC(C)c1nc(CCN(C)c2nccc(N3CCCC(O)C3)n2)no1 (stereo not drawn)")
-8.03
>>> value_observed("CC(Cn1cncn1)NCc1ccc2nonc2c1 (stereo not drawn)")
-5.99
>>> value_observed("CCc1nc(C(=O)NCc2ccc(N3CCNC(=O)C3)c(F)c2)c[nH]1")
5.08

Query string: Item under review: `COc1ccc(C[C@H]2CNCC[C@@H]2OCC2CC2)cc1` . Reported cytotoxicity at 70.5 h?
Result string: -8.25

Query string: // query: `CN(CC(=O)Nc1ccon1)S(=O)(=O)c1cc(Cl)ccc1Cl`
Result string: 23.9

Query string: // query: `O=C(NCCN1CCOCC1)NCc1ccc(-n2cccn2)cc1`
Result string: 1.89

Query string: // query: `Cc1nc(-c2ccco2)ccc1C(=O)NCC(=O)N1CCCCC1`
Result string: -117

Query string: // query: Cc1cccc(OCCC(=O)N(C)CC(C)C#N)c1C (stereo not drawn)
Result string: 19.7

Query string: // query: `COCCn1c2c(ccc1=O)CCN(C(=O)NC1CC1)CC2`
Result string: -3.9

Query string: // query: Cc1nc(C)n(CC2CCCCN2CC(=O)NC(C2CC2)C2CC2)n1 (stereo not drawn)
Result string: 3.82

Query string: // query: CC(C)(C)c1nc(CN2CCCC(Cn3cncn3)C2)cs1 (stereo not drawn)
Result string: 25.2

Query string: // query: NC(=O)NC(=O)C(c1ccccc1)N1CCN(Cc2ccccc2)CC1 (stereo not drawn)
Result string: 1.22

Query string: // query: Nc1nc(CN2CCCC(Cn3cncn3)C2)nc2ccccc12 (stereo not drawn)
Result string: 1.03

Query string: // query: CC(=O)N1CCC(C(=O)NC2CCc3nccn3C2)CC1 (stereo not drawn)
Result string: -97.6

* * *

assay-comment: Human HepG2 cell viability assay in 384 well format
Type: toxicity, cell-based
Set-up: dose 125 nL, time 70.5 hour; concentration not given beside the values
cond: HepG2 cells, read-out: Inhibition
experimental-readout: cytotoxicity at 70.5 h (%)
Use % as the unit, but write only the number.

Completed entries (count: 5):
>>> value_observed("Fc1ccc(C2(NCc3ccccc3)CCOCC2)cc1")
-3.51
>>> value_observed("CC(C)n1nc2c(cc1=O)CN(c1nc3ccccc3s1)CC2")
3.31
>>> value_observed("CCC(=O)NCc1ccccc1Cn1ccnc1")
-2.6
>>> value_observed("CCOCC(O)CN1CCN(C(=O)c2cc(C)ccc2OC)CC1 (centres undefined)")
-5.99
>>> value_observed("COc1cccc(N2CCN(CC(O)c3cc(C)ccc3C)CC2)c1 (centres undefined)")
30.4

Query string: Item under review: Cc1cc(C(C)C(=O)N2CCCN(Cc3cscn3)CC2)c(C)o1 (centres undefined) . Reported cytotoxicity at 70.5 h?
Result string: 18.7

Query string: // query: `Cc1csc2ncc(-c3ccnc(N4CCN(C)CC4)n3)c(=O)n12`
Result string: 24.1

Query string: // query: CC(C)N1CCC(CC(=O)NC(C(=O)O)c2cc(F)ccc2F)CC1 (centres undefined)
Result string: -16.6

Query string: // query: N#Cc1ccc(F)c(CNC(=O)NC(CO)c2ccccc2)c1 (centres undefined)
Result string: 13.7

Query string: // query: `CN(Cc1ccc(C#N)cc1)Cc1noc(C(C)(C)C)n1`
Result string: -10.4
